Biological target: T1, Helicobacter pylori Hsp60 with a 6 × His tag on its C terminus (Helicobacter pylori 26695, UniProt P42383 1-546)
T1 construct: also called recombinant Hsp60; source: E. coli BL21(DE3), purified (Ni-NTA, Sephadex G-75 gel filtration); not shown: His6, C-terminal, kept
T1 sequence (P42383 whole entry): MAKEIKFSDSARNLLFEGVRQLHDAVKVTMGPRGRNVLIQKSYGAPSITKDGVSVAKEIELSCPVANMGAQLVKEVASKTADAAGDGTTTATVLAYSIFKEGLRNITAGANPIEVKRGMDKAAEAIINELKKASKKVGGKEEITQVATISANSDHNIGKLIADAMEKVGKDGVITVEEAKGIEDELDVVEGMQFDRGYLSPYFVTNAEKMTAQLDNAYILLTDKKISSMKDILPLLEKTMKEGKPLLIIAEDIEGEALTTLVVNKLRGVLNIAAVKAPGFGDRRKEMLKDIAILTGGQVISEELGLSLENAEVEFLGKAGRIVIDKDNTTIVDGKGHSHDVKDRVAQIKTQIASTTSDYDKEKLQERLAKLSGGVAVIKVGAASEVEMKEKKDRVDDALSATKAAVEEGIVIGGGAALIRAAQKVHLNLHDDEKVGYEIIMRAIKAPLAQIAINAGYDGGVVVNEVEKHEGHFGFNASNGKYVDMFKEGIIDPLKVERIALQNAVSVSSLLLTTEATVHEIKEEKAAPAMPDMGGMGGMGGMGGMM
Assay: SPR; BIAcore T100; Hsp60 immobilized on CM5 chip (~600 RU); UreA-His or mutants as analytes (0.36-2.19 μM); PBS pH 7.4, 30 μl/min, 25°C; kinetic analysis, global fit to 1:1 Langmuir model
Details: both partners purified
The threshold is 10000 M⁻¹ s⁻¹. Values of kon beneath it are tagged condition met; values meeting or exceeding it are tagged condition not met.

Take a look at these entries with their results.
| binder | label-class |
| --- | --- |
| UreA-His E25A (natural protein, source: E. coli BL21(DE3), purified as wild-type UreA-His; not shown: His tag, C-terminal, kept) MKLTPKELDKLMLHYAGELAKKRKAKGIKLNYVEAVALISAHIMEEARAGKKTAAELMQEGRTLLKPDDVMDGVASMIHEVGIEAMFPDGTKLVTVHTPIEANGKLVPGELFLKNEDITINEGKKAVSVKVKNVGDRPVQIGSHFHFFEVNRCLDFDREKTFGKRLDIASGTAVRFEPGEEKSVELIDIGGNRRIFGFNALVDRQADNESKKIALHRAKERGFHGAKSDDNYVKTIKE | condition not met |
| UreA-His R23A (natural protein, source: E. coli BL21(DE3), purified as wild-type UreA-His; not shown: His tag, C-terminal, kept) MKLTPKELDKLMLHYAGELAKKAKEKGIKLNYVEAVALISAHIMEEARAGKKTAAELMQEGRTLLKPDDVMDGVASMIHEVGIEAMFPDGTKLVTVHTPIEANGKLVPGELFLKNEDITINEGKKAVSVKVKNVGDRPVQIGSHFHFFEVNRCLDFDREKTFGKRLDIASGTAVRFEPGEEKSVELIDIGGNRRIFGFNALVDRQADNESKKIALHRAKERGFHGAKSDDNYVKTIKE | condition met |
| UreA-His K26A (natural protein, source: E. coli BL21(DE3), purified as wild-type UreA-His; not shown: His tag, C-terminal, kept) MKLTPKELDKLMLHYAGELAKKRKEAGIKLNYVEAVALISAHIMEEARAGKKTAAELMQEGRTLLKPDDVMDGVASMIHEVGIEAMFPDGTKLVTVHTPIEANGKLVPGELFLKNEDITINEGKKAVSVKVKNVGDRPVQIGSHFHFFEVNRCLDFDREKTFGKRLDIASGTAVRFEPGEEKSVELIDIGGNRRIFGFNALVDRQADNESKKIALHRAKERGFHGAKSDDNYVKTIKE | condition not met |
| UreA-His Y15A (natural protein, source: E. coli BL21(DE3), purified as wild-type UreA-His; not shown: His tag, C-terminal, kept) MKLTPKELDKLMLHAAGELAKKRKEKGIKLNYVEAVALISAHIMEEARAGKKTAAELMQEGRTLLKPDDVMDGVASMIHEVGIEAMFPDGTKLVTVHTPIEANGKLVPGELFLKNEDITINEGKKAVSVKVKNVGDRPVQIGSHFHFFEVNRCLDFDREKTFGKRLDIASGTAVRFEPGEEKSVELIDIGGNRRIFGFNALVDRQADNESKKIALHRAKERGFHGAKSDDNYVKTIKE | condition not met |
| UreA-His K22A (natural protein, source: E. coli BL21(DE3), purified as wild-type UreA-His; not shown: His tag, C-terminal, kept) MKLTPKELDKLMLHYAGELAKARKEKGIKLNYVEAVALISAHIMEEARAGKKTAAELMQEGRTLLKPDDVMDGVASMIHEVGIEAMFPDGTKLVTVHTPIEANGKLVPGELFLKNEDITINEGKKAVSVKVKNVGDRPVQIGSHFHFFEVNRCLDFDREKTFGKRLDIASGTAVRFEPGEEKSVELIDIGGNRRIFGFNALVDRQADNESKKIALHRAKERGFHGAKSDDNYVKTIKE | condition met |
| UreA-His K66A (natural protein, source: E. coli BL21(DE3), purified as wild-type UreA-His; not shown: His tag, C-terminal, kept) MKLTPKELDKLMLHYAGELAKKRKEKGIKLNYVEAVALISAHIMEEARAGKKTAAELMQEGRTLLAPDDVMDGVASMIHEVGIEAMFPDGTKLVTVHTPIEANGKLVPGELFLKNEDITINEGKKAVSVKVKNVGDRPVQIGSHFHFFEVNRCLDFDREKTFGKRLDIASGTAVRFEPGEEKSVELIDIGGNRRIFGFNALVDRQADNESKKIALHRAKERGFHGAKSDDNYVKTIKE | condition met |

Q) Say whether its kon is strictly beneath 10000 M⁻¹ s⁻¹. Entry: UreA-His (urease α subunit fused with a His tag on its C-terminus) (natural protein, also called wild-type UreA-His; urease subunit α; source: E. coli BL21(DE3), purified (Ni-NTA); not shown: His tag, C-terminal, kept) MKLTPKELDKLMLHYAGELAKKRKEKGIKLNYVEAVALISAHIMEEARAGKKTAAELMQEGRTLLKPDDVMDGVASMIHEVGIEAMFPDGTKLVTVHTPIEANGKLVPGELFLKNEDITINEGKKAVSVKVKNVGDRPVQIGSHFHFFEVNRCLDFDREKTFGKRLDIASGTAVRFEPGEEKSVELIDIGGNRRIFGFNALVDRQADNESKKIALHRAKERGFHGAKSDDNYVKTIKE
A) condition met

Q) Say whether its kon is strictly beneath 10000 M⁻¹ s⁻¹. Entry: UreA-His D68A (natural protein, source: E. coli BL21(DE3), purified as wild-type UreA-His; not shown: His tag, C-terminal, kept) MKLTPKELDKLMLHYAGELAKKRKEKGIKLNYVEAVALISAHIMEEARAGKKTAAELMQEGRTLLKPADVMDGVASMIHEVGIEAMFPDGTKLVTVHTPIEANGKLVPGELFLKNEDITINEGKKAVSVKVKNVGDRPVQIGSHFHFFEVNRCLDFDREKTFGKRLDIASGTAVRFEPGEEKSVELIDIGGNRRIFGFNALVDRQADNESKKIALHRAKERGFHGAKSDDNYVKTIKE
A) condition met
